Give measured MIC for each item. Keep answers brief.
System: Streptococcus pneumoniae
Procedure summary: In vitro antibacterial activity against 5979 strain of Streptococcus pneumoniae
Type: functional
Give bare numbers, in µg/mL.

# count of solved cases: 2
Chemical structure | MIC [µg/mL]
CC[C@H]1OC(=O)/C(C)=C/[C@H](C)[C@@H](O[C@@H]2O[C@H](C)C[C@H](N(C)C)[C@H]2O)[C@@](C)(OC)C[C@@H](C)C(=O)[C@H](C)[C@H]2N(CC/C=C\c3ccc(Cl)cc3)C(=O)O[C@]12C | 8
CC[C@H]1OC(=O)/C(C)=C/[C@H](C)[C@@H](O[C@@H]2O[C@H](C)C[C@H](N(C)C)[C@H]2O)[C@@](C)(OC)C[C@@H](C)C(=O)[C@H](C)[C@H]2N(CCc3cccc(OC)c3)C(=O)O[C@]12C | 64

Next up:
Query: Using the record for CC[C@H]1OC(=O)/C(C)=C/[C@H](C)[C@@H](O[C@@H]2O[C@H](C)C[C@H](N(C)C)[C@H]2O)[C@@](C)(OC)C[C@@H](C)C(=O)[C@H](C)[C@H]2N(CCc3ccc(Cl)c(Cl)c3)C(=O)O[C@]12C , report its MIC.
Response: 8

###

Tested on: Streptococcus pneumoniae
Procedure summary: In vitro antibacterial activity against 5979 strain of Streptococcus pneumoniae
Format: functional
Value type: MIC (µg/mL)
Give bare numbers, in µg/mL.

# example entries with known answers
Compound | Quantitative result
CC[C@H]1OC(=O)/C(C)=C/[C@H](C)[C@@H](O[C@@H]2O[C@H](C)C[C@H](N(C)C)[C@H]2O)[C@@](C)(OC)C[C@@H](C)C(=O)[C@H](C)[C@H]2N(CCc3cccs3)C(=O)O[C@]12C | 32
CC[C@H]1OC(=O)/C(C)=C/[C@H](C)[C@@H](O[C@@H]2O[C@H](C)C[C@H](N(C)C)[C@H]2O)[C@@](C)(OC)C[C@@H](C)C(=O)[C@H](C)[C@H]2N(CCCc3ccccc3)C(=O)O[C@]12C (stereo in doubt; 10) | 64
CC[C@H]1OC(=O)/C(C)=C/[C@H](C)[C@@H](O[C@@H]2O[C@H](C)C[C@H](N(C)C)[C@H]2O)[C@@](C)(OC)C[C@@H](C)C(=O)[C@H](C)[C@H]2N(CCc3ccc([N+](=O)[O-])cc3)C(=O)O[C@]12C | 64

Query: Could you tell me which MIC is on file for CC[C@H]1OC(=O)/C(C)=C/[C@H](C)[C@@H](O[C@@H]2O[C@H](C)C[C@H](N(C)C)[C@H]2O)[C@@](C)(OC)C[C@@H](C)C(=O)[C@H](C)[C@H]2N(CCc3ccc(F)cc3)C(=O)O[C@]12C ?
Response: 32

###

System: Haemophilus influenzae
Procedure summary: In vitro antibacterial activity against DILL strain of Haemophilus influenzae.
Type: functional
Kindly state MIC for each of the entries shown.
One number for each entry, in µg/mL.

Example results:
Chemical structure | MIC, µg/mL
CC[C@H]1OC(=O)/C(C)=C/[C@H](C)[C@@H](O[C@@H]2O[C@H](C)C[C@H](N(C)C)[C@H]2O)[C@@](C)(OC)C[C@@H](C)C(=O)[C@H](C)[C@H]2N(CCCOc3ccccc3)C(=O)O[C@]12C | 16
CC[C@H]1OC(=O)/C(C)=C/[C@H](C)[C@@H](O[C@@H]2O[C@H](C)C[C@H](N(C)C)[C@H]2O)[C@@](C)(OC)C[C@@H](C)C(=O)[C@H](C)[C@H]2N(CCCc3cnc4ccccc4c3)C(=O)O[C@]12C | 32

Query: Give its MIC value. Item: CC[C@H]1OC(=O)/C(C)=C/[C@H](C)[C@@H](O[C@@H]2O[C@H](C)C[C@H](N(C)C)[C@H]2O)[C@@](C)(OC)C[C@@H](C)C(=O)[C@H](C)[C@H]2N(CCc3cccc(C(F)(F)F)c3)C(=O)O[C@]12C
Response: 32
